Test system: Klebsiella pneumoniae KAE
Assay: In vitro antibacterial activity, standard agar-dilution assay
Format: cell-based
Conditions: Klebsiella pneumoniae KAE; agar dilution; read-out: MIC
Quick reference for MIC among some molecules
Readout type: MIC

[[record]]
molecule = "C=C[C@@]1(C)[C@H](Cl)C[C@H](C(=C)C)[C@@H](c2c[nH]c3ccccc23)[C@H]1N=C=S [Compound 6, Hapalindole F]"
readout_type = "MIC"
observed_value = "> 64 µg/mL"

[[record]]
molecule = "C=C[C@@]1(C)CC[C@H](C(=C)C)[C@@H](c2c[nH]c3ccccc23)[C@H]1N=C=S [Compound 4, Hapalindole D]"
readout_type = "MIC"
observed_value = "> 64 µg/mL"

[[record]]
molecule = "[C-]#[N+][C@@H]1[C@H](c2c[nH]c3ccccc23)[C@@H](C(=C)C)CC[C@]1(C)C=C [Compound 3, Hapalindole C]"
readout_type = "MIC"
observed_value = "> 64 µg/mL"

[[record]]
molecule = "[C-]#[N+][C@@H]1[C@@H]2c3c[nH]c4cccc(c34)C(C)(C)[C@H]2C[C@@H](Cl)[C@]1(C)C=C [Compound 7, Hapalindole G]"
readout_type = "MIC"
observed_value = "> 64 µg/mL"

[[record]]
molecule = "[C-]#[N+][C@@H]1[C@H]2c3c[nH]c4cccc(c34)C(C)(C)[C@@H]2CC[C@]1(C)C=C [Compound 8, Hapalindole H]"
readout_type = "MIC"
observed_value = "> 64 µg/mL"

[[record]]
molecule = "[C-]#[N+][C@@H]1[C@H]2c3c[nH]c4cccc(c34)C(C)(C)[C@H]2C[C@@H](Cl)[C@]1(C)C=C [Compound 1, hapalindole A]"
readout_type = "MIC"
observed_value = "> 64 µg/mL"

[[record]]
molecule = "C=C[C@@]1(C)[C@H](Cl)C[C@H]2[C@H](c3c[nH]c4cccc(c34)C2(C)C)[C@H]1N=C=S [Compound 2, Hapalindole B]"
readout_type = "MIC"
observed_value = "> 64 µg/mL"


====

System: Streptococcus faecium ATCC 9790
Test: In vitro antibacterial activity, standard agar-dilution assay
Format: cell-based
Details: Enterococcus faecium, ATCC9790; Streptococcus faecium ATCC 9790; agar dilution; read-out: MIC
Recorded MIC, one value per entry.
Readout type: MIC (mg/L)

[[record]]
compound = "[C-]#[N+][C@@H]1[C@H]2c3c[nH]c4cccc(c34)C(C)(C)[C@H]2C[C@@H](Cl)[C@]1(C)C=C [Compound 1, hapalindole A]"
comparison_operator = "="
observed_value = 16

[[record]]
compound = "C=C[C@@]1(C)[C@H](Cl)C[C@H](C(=C)C)[C@@H](c2c[nH]c3ccccc23)[C@H]1N=C=S [Compound 6, Hapalindole F]"
comparison_operator = "="
observed_value = 64

[[record]]
compound = "C=C[C@@]1(C)[C@H](Cl)C[C@H]2[C@H](c3c[nH]c4cccc(c34)C2(C)C)[C@H]1N=C=S [Compound 2, Hapalindole B]"
comparison_operator = "="
observed_value = 4

[[record]]
compound = "[C-]#[N+][C@@H]1[C@@H]2c3c[nH]c4cccc(c34)C(C)(C)[C@H]2C[C@@H](Cl)[C@]1(C)C=C [Compound 7, Hapalindole G]"
comparison_operator = ">"
observed_value = 64

[[record]]
compound = "[C-]#[N+][C@@H]1[C@H](c2c[nH]c3ccccc23)[C@@H](C(=C)C)CC[C@]1(C)C=C [Compound 3, Hapalindole C]"
comparison_operator = ">"
observed_value = 64

[[record]]
compound = "C=C[C@@]1(C)CC[C@H](C(=C)C)[C@@H](c2c[nH]c3ccccc23)[C@H]1N=C=S [Compound 4, Hapalindole D]"
comparison_operator = "="
observed_value = 8

[[record]]
compound = "[C-]#[N+][C@@H]1[C@H]2c3c[nH]c4cccc(c34)C(C)(C)[C@@H]2CC[C@]1(C)C=C [Compound 8, Hapalindole H]"
comparison_operator = ">"
observed_value = 64


====

Listing of entries alongside the reported MIC.
Test system: Streptococcus sp group D 2041
Experiment: In vitro antibacterial activity, standard agar-dilution assay
Format: cell-based
Conditions: GROUPD2041; Streptococcus sp group D 2041; agar dilution; read-out: MIC
Readout type: MIC (µg/mL)

[[record]]
smiles = "[C-]#[N+][C@@H]1[C@H]2c3c[nH]c4cccc(c34)C(C)(C)[C@@H]2CC[C@]1(C)C=C"
target_or_test_system = "Streptococcus sp group D 2041"
units = "µg/mL"
comparison_operator = ">"
observed_value = 64

[[record]]
smiles = "C=C[C@@]1(C)[C@H](Cl)C[C@H]2[C@H](c3c[nH]c4cccc(c34)C2(C)C)[C@H]1N=C=S"
target_or_test_system = "Streptococcus sp group D 2041"
units = "µg/mL"
comparison_operator = "="
observed_value = 8

[[record]]
smiles = "[C-]#[N+][C@@H]1[C@H](c2c[nH]c3ccccc23)[C@@H](C(=C)C)CC[C@]1(C)C=C"
target_or_test_system = "Streptococcus sp group D 2041"
units = "µg/mL"
comparison_operator = ">"
observed_value = 64

[[record]]
smiles = "C=C[C@@]1(C)[C@H](Cl)C[C@H](C(=C)C)[C@@H](c2c[nH]c3ccccc23)[C@H]1N=C=S"
target_or_test_system = "Streptococcus sp group D 2041"
units = "µg/mL"
comparison_operator = "="
observed_value = 16

[[record]]
smiles = "C=C[C@@]1(C)CC[C@H](C(=C)C)[C@@H](c2c[nH]c3ccccc23)[C@H]1N=C=S"
target_or_test_system = "Streptococcus sp group D 2041"
units = "µg/mL"
comparison_operator = "="
observed_value = 8

[[record]]
smiles = "[C-]#[N+][C@@H]1[C@H]2c3c[nH]c4cccc(c34)C(C)(C)[C@H]2C[C@@H](Cl)[C@]1(C)C=C"
target_or_test_system = "Streptococcus sp group D 2041"
units = "µg/mL"
comparison_operator = "="
observed_value = 16

[[record]]
smiles = "[C-]#[N+][C@@H]1[C@@H]2c3c[nH]c4cccc(c34)C(C)(C)[C@H]2C[C@@H](Cl)[C@]1(C)C=C"
target_or_test_system = "Streptococcus sp group D 2041"
units = "µg/mL"
comparison_operator = ">"
observed_value = 64


====

Test system: Staphylococcus epidermidis 222
Test: In vitro antibacterial activity, standard agar-dilution assay
Type: cell-based
Conditions: Staphylococcus epidermidis 222; agar dilution; read-out: MIC
// NB: equality with 4 µg/mL counts as class 0; only MIC strictly below is class 1

[[record]]
smiles = "[C-]#[N+][C@@H]1[C@@H]2c3c[nH]c4cccc(c34)C(C)(C)[C@H]2C[C@@H](Cl)[C@]1(C)C=C"
class = "class 0"

[[record]]
smiles = "C=C[C@@]1(C)[C@H](Cl)C[C@H]2[C@H](c3c[nH]c4cccc(c34)C2(C)C)[C@H]1N=C=S"
class = "class 1"

[[record]]
smiles = "[C-]#[N+][C@@H]1[C@H]2c3c[nH]c4cccc(c34)C(C)(C)[C@@H]2CC[C@]1(C)C=C"
class = "class 0"

[[record]]
smiles = "[C-]#[N+][C@@H]1[C@H](c2c[nH]c3ccccc23)[C@@H](C(=C)C)CC[C@]1(C)C=C"
class = "class 0"

[[record]]
smiles = "[C-]#[N+][C@@H]1[C@H]2c3c[nH]c4cccc(c34)C(C)(C)[C@H]2C[C@@H](Cl)[C@]1(C)C=C"
class = "class 1"


====

Test system: Acinetobacter calcoaceticus AC12
Experiment: In vitro antibacterial activity, standard agar-dilution assay
Format: cell-based
Conditions: Acinetobacter calcoaceticus AC12; agar dilution; read-out: MIC
Attribute: MIC
Readout type: MIC (µg/mL)

[[record]]
smiles = "[C-]#[N+][C@@H]1[C@@H]2c3c[nH]c4cccc(c34)C(C)(C)[C@H]2C[C@@H](Cl)[C@]1(C)C=C"
target_or_test_system = "Acinetobacter calcoaceticus AC12"
comparison_operator = "="
observed_value = 16

[[record]]
smiles = "[C-]#[N+][C@@H]1[C@H](c2c[nH]c3ccccc23)[C@@H](C(=C)C)CC[C@]1(C)C=C"
target_or_test_system = "Acinetobacter calcoaceticus AC12"
comparison_operator = "="
observed_value = 2

[[record]]
smiles = "C=C[C@@]1(C)[C@H](Cl)C[C@H]2[C@H](c3c[nH]c4cccc(c34)C2(C)C)[C@H]1N=C=S"
target_or_test_system = "Acinetobacter calcoaceticus AC12"
comparison_operator = ">"
observed_value = 64

[[record]]
smiles = "C=C[C@@]1(C)[C@H](Cl)C[C@H](C(=C)C)[C@@H](c2c[nH]c3ccccc23)[C@H]1N=C=S"
target_or_test_system = "Acinetobacter calcoaceticus AC12"
comparison_operator = ">"
observed_value = 64

[[record]]
smiles = "C=C[C@@]1(C)CC[C@H](C(=C)C)[C@@H](c2c[nH]c3ccccc23)[C@H]1N=C=S"
target_or_test_system = "Acinetobacter calcoaceticus AC12"
comparison_operator = ">"
observed_value = 64

[[record]]
smiles = "[C-]#[N+][C@@H]1[C@H]2c3c[nH]c4cccc(c34)C(C)(C)[C@@H]2CC[C@]1(C)C=C"
target_or_test_system = "Acinetobacter calcoaceticus AC12"
comparison_operator = "="
observed_value = 16

[[record]]
smiles = "[C-]#[N+][C@@H]1[C@H]2c3c[nH]c4cccc(c34)C(C)(C)[C@H]2C[C@@H](Cl)[C@]1(C)C=C"
target_or_test_system = "Acinetobacter calcoaceticus AC12"
comparison_operator = "="
observed_value = 2

